Molecular target: T1, TNFR1 (Homo sapiens, UniProt P19438)
T1 chain: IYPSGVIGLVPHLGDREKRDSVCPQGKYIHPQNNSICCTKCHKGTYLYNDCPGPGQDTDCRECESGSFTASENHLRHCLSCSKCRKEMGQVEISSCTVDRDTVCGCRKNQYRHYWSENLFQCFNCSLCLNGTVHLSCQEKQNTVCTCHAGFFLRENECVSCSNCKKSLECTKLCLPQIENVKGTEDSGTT
Test: yeast display SC50
PROPERTY_NAME: apparent Kd (screen) (nM)
The reply should be a number in nM, with the unit left off.

Asked: # return recorded apparent Kd (screen) for input Y37R (designed binder) MTLQELLREEALRRAEAEAFRYALELLAEKFPEQKERLLDLAEEIESQIRSLSGVDVEDVRKFLDKEWAWVKELLAEHPAELAEVEAARAARLAELRAEVEAKVAA
Given back: 4.83

Asked: # return recorded apparent Kd (screen) for input E95P (designed binder) MTLQELLREEALRRAEAEAFRYALELLAEKFPEQKEYLLDLAEEIESQIRSLSGVDVEDVRKFLDKEWAWVKELLAEHPAELAEVEAARAARLAPLRAEVEAKVAA
Given back: 0.718
